# Tested on: OC-314 (Ovarian Carcinoma)
# assay: combination Emax (second highest fraction inhibited in the dose matrix, 72 h); higher = more inhibition; extreme values may be limits of the assay
recordedMetric: combination Emax
Response field accepts a number only; no unit should be typed.

Data request, read-out combination Emax, for CN(CCO)CC[C@H](CSc1ccccc1)Nc1ccc(S(=O)(=O)NC(=O)c2ccc(N3CCC([C@@H](O)c4ccccc4-c4ccc(Cl)cc4)CC3)cc2)cc1S(=O)(=O)C(F)(F)F [AZD4320] + Nc1ccn([C@@H]2O[C@H](CO)[C@@H](O)C2(F)F)c(=O)n1 [Gemcitabine] (first compound max 1 µM, 7x7, partner max 0.3 µM)
0.989

Continue with COc1cccc(OCCCN)c1-c1cc(Nc2cnc(C#N)cn2)n[nH]1 [Prexasertib] + Cc1cc2ncnn2cc1Nc1ncc2c(n1)n(C1CCOCC1)c(=O)n2C [AZD7648] (first compound max 1 µM, 7x7, partner max 10 µM)
0.946

* * *

# Tested on: MHH-PREB-1 (B-Cell Non-Hodgkin's Lymphoma)
# assay: Bliss excess, mean over the matrix (fraction); higher = more synergy
recordedMetric: Bliss excess
Response field accepts a number only; no unit should be typed.

{"molecule": "C[C@@H]1COCCN1c1cc(C2([S@](C)(=N)=O)CC2)nc(-c2ccnc3[nH]ccc23)n1 [AZD6738] + O=C(c1cc(Cc2n[nH]c(=O)c3ccccc23)ccc1F)N1CCN(C(=O)C2CC2)CC1 [Olaparib] (first compound max 10 µM, 7x7, partner max 10 µM)", "Bliss excess": -0.0405}

Data request, read-out Bliss excess, for Cc1c2c(nn1C)CSCc1cc(n(C)n1)CSc1cc(c3ccccc3c1)OCCCc1c(C(=O)O)n(C)c3c-2c(Cl)ccc13 [AZD5991] + Cc1cc2ncnn2cc1Nc1ncc2c(n1)n(C1CCOCC1)c(=O)n2C [AZD7648] (first compound max 1 µM, 7x7, partner max 10 µM)
-0.0029

Continue with COc1cccc(OCCCN)c1-c1cc(Nc2cnc(C#N)cn2)n[nH]1 [Prexasertib] + C=CCn1c(=O)c2cnc(Nc3ccc(N4CCN(C)CC4)cc3)nc2n1-c1cccc(C(C)(C)O)n1 [AZD1775] (first compound max 1 µM, partner max 1 µM)
0.0729

Continue with Cc1c2c(nn1C)CSCc1cc(n(C)n1)CSc1cc(c3ccccc3c1)OCCCc1c(C(=O)O)n(C)c3c-2c(Cl)ccc13 [AZD5991] + CN(C)CCCOc1ccc(-c2ccc3ncc4c(c3c2)n(C2CCOCC2)c(=O)n4C)cn1 [AZD0156] (first compound max 1 µM, 7x7, partner max 1 µM)
0.0081

* * *

# Tested on: RPMI-6666 (Non-Cancerous)
# assay: Bliss excess, mean over the matrix (fraction); higher = more synergy
recordedMetric: Bliss excess
Response field accepts a number only; no unit should be typed.

{"compound": "O=C(c1cc(Cc2n[nH]c(=O)c3ccccc23)ccc1F)N1CCN(C(=O)C2CC2)CC1 [Olaparib] + CN(CC[C@H](CSC1=CC=CC=C1)NC2=C(C=C(C=C2)S(=O)(=O)NC(=O)C3=CC=C(C=C3)N4CCC(CC4)[C@H](C5=CC=CC=C5C6=CC=C(C=C6)Cl)O)S(=O)(=O)C(F)(F)F)CCO [AZD4320] (first compound max 10 µM, 7x7, partner max 1 µM)", "Bliss excess": 0.0694}

Data request, read-out Bliss excess, for C=CCn1c(=O)c2cnc(Nc3ccc(N4CCN(C)CC4)cc3)nc2n1-c1cccc(C(C)(C)O)n1 [AZD1775] + C[C@@H]1COCCN1C2=NC(=NC(=C2)C3(CC3)[S@](=N)(=O)C)C4=C5C=CNC5=NC=C4 [AZD6738] (first compound max 1 µM, partner max 10 µM)
-0.0165

Continue with O=C(c1cc(Cc2n[nH]c(=O)c3ccccc23)ccc1F)N1CCN(C(=O)C2CC2)CC1 [Olaparib] + CC1(C)CCC(CN2CCN(c3ccc(C(=O)NS(=O)(=O)c4ccc(NCC5CCOCC5)c([N+](=O)[O-])c4)c(Oc4cnc5[nH]ccc5c4)c3)CC2)=C(c2ccc(Cl)cc2)C1 [Venetoclax] (first compound max 10 µM, 7x7, partner max 1 µM)
0.134

Continue with COc1nnc2ccc(N3CCC(c4ccc(OCCN5CCN(C)C(=O)[C@H]5C)cc4)CC3)nn12 [AZD5153] + CC1(C)CCC(CN2CCN(c3ccc(C(=O)NS(=O)(=O)c4ccc(NCC5CCOCC5)c([N+](=O)[O-])c4)c(Oc4cnc5[nH]ccc5c4)c3)CC2)=C(c2ccc(Cl)cc2)C1 [Venetoclax] (first compound max 1 µM, 7x7, partner max 1 µM)
-0.0153

Continue with CS(=O)(=O)CCNCc1ccc(-c2ccc3ncnc(Nc4ccc(OCc5cccc(F)c5)c(Cl)c4)c3c2)o1 [Lapatinib] + NC1(c2ccc(-c3nc4ccn5c(=O)[nH]nc5c4cc3-c3ccccc3)cc2)CCC1 [MK-2206] (first compound max 10 µM, 7x7, partner max 10 µM)
0.0164

Continue with Cc1nc(Nc2ncc(C(=O)Nc3c(C)cccc3Cl)s2)cc(N2CCN(CCO)CC2)n1 [Dasatinib] + CC(=O)Nc1cccc(-n2c(=O)n(C3CC3)c(=O)c3c(Nc4ccc(I)cc4F)n(C)c(=O)c(C)c32)c1 [Trametinib] (first compound max 2 µM, 7x7, partner max 1 µM)
0.0193

Continue with COc1cc2ncnc(Nc3ccc(F)c(Cl)c3)c2cc1OCCCN1CCOCC1 [Gefitinib] + CC(C)n1c(=O)n(C)c2cnc3cc(F)c(-c4ccc(OCCCN5CCCCC5)nc4)cc3c21 [AZD1390] (first compound max 10 µM, 7x7, partner max 0.3 µM)
-0.0657

Continue with COc1nnc2ccc(N3CCC(c4ccc(OCCN5CCN(C)C(=O)[C@H]5C)cc4)CC3)nn12 [AZD5153] + Cn1cnc2c(F)c(Nc3ccc(Br)cc3Cl)c(C(=O)NOCCO)cc21 [Selumetinib] (first compound max 1 µM, 7x7, partner max 10 µM)
-0.0462

Continue with CC1(C)CCC(CN2CCN(c3ccc(C(=O)NS(=O)(=O)c4ccc(NCC5CCOCC5)c([N+](=O)[O-])c4)c(Oc4cnc5[nH]ccc5c4)c3)CC2)=C(c2ccc(Cl)cc2)C1 [Venetoclax] + CCN(CCO)CCCOc1ccc2c(Nc3cc(CC(=O)Nc4cccc(F)c4)[nH]n3)ncnc2c1 [AZD2811] (first compound max 1 µM, 7x7, partner max 1 µM)
0.189

Continue with COc1cccc(OCCCN)c1-c1cc(Nc2cnc(C#N)cn2)n[nH]1 [Prexasertib] + CCc1c2c(nc3ccc(O)cc13)-c1cc3c(c(=O)n1C2)COC(=O)[C@]3(O)CC [SN-38] (first compound max 1 µM, 7x7, partner max 0.3 µM)
-0.0554

Continue with CC1(C)CCC(CN2CCN(c3ccc(C(=O)NS(=O)(=O)c4ccc(NCC5CCOCC5)c([N+](=O)[O-])c4)c(Oc4cnc5[nH]ccc5c4)c3)CC2)=C(c2ccc(Cl)cc2)C1 [Venetoclax] + COc1cc(Nc2ncc3c(n2)-c2ccc(Cl)cc2C(c2c(F)cccc2OC)=NC3)ccc1C(=O)O [Alisertib] (first compound max 1 µM, 7x7, partner max 10 µM)
0.0702

Continue with NC1(C(=O)N[C@@H](CCO)c2ccc(Cl)cc2)CCN(c2ncnc3[nH]ccc23)CC1 [Capivasertib] + Cn1cnc2c(F)c(Nc3ccc(Br)cc3Cl)c(C(=O)NOCCO)cc21 [Selumetinib] (first compound max 10 µM, 7x7, partner max 10 µM)
0.0604

Continue with COc1cccc(OCCCN)c1-c1cc(Nc2cnc(C#N)cn2)n[nH]1 [Prexasertib] + Cc1cc2ncnn2cc1Nc1ncc2c(n1)n(C1CCOCC1)c(=O)n2C [AZD7648] (first compound max 1 µM, 7x7, partner max 10 µM)
-0.0261

* * *

# System: NCI-H2461 (Mesothelioma)
# assay: Bliss excess, mean over the matrix (fraction); higher = more synergy
Overview of reported Bliss excess across a group of compounds:
Response field accepts a number only; no unit should be typed.

{"compound": "C=CCn1c(=O)c2cnc(Nc3ccc(N4CCN(C)CC4)cc3)nc2n1-c1cccc(C(C)(C)O)n1 [AZD1775] + C[C@@H]1COCCN1C2=NC(=NC(=C2)C3(CC3)[S@](=N)(=O)C)C4=C5C=CNC5=NC=C4 [AZD6738] (first compound max 1 µM, partner max 10 µM)", "systemTested": "NCI-H2461 (Mesothelioma)", "Bliss excess": -0.081}
{"compound": "Cc1c2c(nn1C)CSCc1cc(n(C)n1)CSc1cc(c3ccccc3c1)OCCCc1c(C(=O)O)n(C)c3c-2c(Cl)ccc13 [AZD5991] + Nc1ccn([C@@H]2O[C@H](CO)[C@@H](O)C2(F)F)c(=O)n1 [Gemcitabine] (first compound max 1 µM, 7x7, partner max 0.3 µM)", "systemTested": "NCI-H2461 (Mesothelioma)", "Bliss excess": -0.0432}
{"compound": "NC1(C(=O)N[C@@H](CCO)c2ccc(Cl)cc2)CCN(c2ncnc3[nH]ccc23)CC1 [Capivasertib] + CC(=O)c1c(C)c2cnc(Nc3ccc(N4CCNCC4)cn3)nc2n(C2CCCC2)c1=O [Palbociclib] (first compound max 10 µM, 7x7, partner max 10 µM)", "systemTested": "NCI-H2461 (Mesothelioma)", "Bliss excess": -0.0609}

Next:
Data request, read-out Bliss excess, for CN(CCO)CC[C@H](CSc1ccccc1)Nc1ccc(S(=O)(=O)NC(=O)c2ccc(N3CCC([C@@H](O)c4ccccc4-c4ccc(Cl)cc4)CC3)cc2)cc1S(=O)(=O)C(F)(F)F [AZD4320] + C[C@@H]1COCCN1C2=NC(=NC(=C2)C3(CC3)[S@](=N)(=O)C)C4=C5C=CNC5=NC=C4 [AZD6738] (first compound max 1 µM, 7x7, partner max 10 µM)
-0.0341

Where these numbers come from: the supplement of paper PMC11061612
